# Lookup of reported ND50 keyed by entry
# TGT: T1, human IL-1α (human, UniProt P01583 113-271)
# T1 sequence (looked up): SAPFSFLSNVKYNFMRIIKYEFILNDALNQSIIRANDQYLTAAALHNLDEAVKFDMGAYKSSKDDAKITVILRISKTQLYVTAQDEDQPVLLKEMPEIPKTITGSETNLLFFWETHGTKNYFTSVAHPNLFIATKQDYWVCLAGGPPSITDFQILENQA
# ASSAY EXPLANATION: cell-based or functional assay

| BINDER | UNITS | ND50 |
| --- | --- | --- |
| ABT1-95-11 (other, VK dAb) VL: DIQMTQSPSSLSASVGDRVTITCRASQPIQGNLRWYQQKPGIAPKLLIYSSSYLERGVPSRFSGSGSGTDFTLTISSLHPEDLATYHCQQGYRWPVTFGQGTKVEIKR | nM | 0.3 |
| ABT1-95-135 (other) VL: DIQMTQSPSSLSASVGDRVTITCRASQPIVRNLRWYQQKPGKAPKLLIYSSSYLEPGVPSRFSGSGSGTDFTLTISSLQPEDFATYHCQQGYSWPVTFGQGTKVEIKR | nM | 0.1 |
| ABT1-141-78 (other, VK dAb) VL: DIQMTQSPSSLSASVGDRVTITCRANQWIQKQLAWYQQKPGKAPKLLIYSSSHLQSGVPSRFSGSGYGTDFTLTISSLQPQDFATYYCQQHLRVPMTFGQGTKVEIKR | nM | 0.7 |
| ABT1-95-116 (other, VK dAb) VL: DIQMTQSPSSLSASVGDRVTITCRASQPIVRNLRWYQQKPGKAPKLLIYSSSYLEPGVPSRFSGSGSGTDFTLTISSLQPEDFATYHCVQGYRWPVTFGQGTKVEIKR | nM | 0.168 |
| ABT1-95-A3 (other) VL: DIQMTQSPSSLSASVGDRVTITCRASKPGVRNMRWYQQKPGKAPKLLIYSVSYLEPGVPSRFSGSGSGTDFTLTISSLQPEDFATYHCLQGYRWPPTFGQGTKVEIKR | nM | 0.011 |
| ABT1-95-107 (other, VK dAb) VL: DIQMTQSPSSLSASVGDRVTITCRASQPIVRNLRWYQQKPGKAPKLLIYSSSYLEHGVPSRFSGSGSGTDFTLTISSLQPEDFATYHCQQGYRWPVTFGQGTKVEIKR | nM | 0.5 |
| ABT1-95-4 (other, VK dAb) VL: DIQMTQSPSSLSASVGDRVTITCRASQPIVRNLRWYQQKPGKAPKLLIYSSSYLQSGVPSRFSGSGSGTDFTLTISSLQPEDFATYHCQQGYRWPVTFGQGTKVEIKR | nM | 2 |
| ABT1-141-77 (other, VK dAb) VL: DIQMTQSPSSLSASVGDRVTITCRANQWIQKQLAWYQQKPGKAPKLLIFSSSHLQSGVPSRFSGSGSGTDFTLTISSLQPQDFATYYCQQHLRVPMTFGQGTKVEIKR | nM | 1 |
| ABT1-95-33 (other, VK dAb) VL: DIQMTQSPSSLSASVGDRVTITCRASQPIVRNLRWYQQKPGKAPKLLIYSSSYLEPGVPSRFSGSGSGTDFTLTISSLQPEDFATYYCRQGYRWPVTFGQGTKVEIKR | nM | 1 |
| ABT1-95 (other, VK dAb) VL: DIQMTQSPSSLSASVGDRVTITCRASQPIHGNLRWYQQKPGKAPKLLIYNISNLQSGVPSRFSGSGSGTDFTLTISSLQPEDFATYYCQQGYRWPVTFGQGTKVEIKR | nM | 800 |
| ABT1-99 (other) VH: EVQLLESGGGLVQPGGSLRLSCAASGFTFGKYSMTWVRQAPGKGLEWVSVIDPWGHYTYYADSVKGRFTISRDNSKNTLYLQMNSLRAEDTAVYYCAKSVDATLLRRYFDYWGQGTLVTVSS | nM | 500 |
| ABT1-141-80 (other, VK dAb) VL: DIQMTQSPSSLSASVGDRVTITCRANQWIQKQLAWYQQKPGKAPKLLIYSSSHLQSGVPSRFSGSGYGTDFTLTISSLQPEDFATYYCQQHLRVPMTFGQGTKVEIKR | nM | 1.7 |
| ABT1-95-169 (other) VL: DIQMTQSPSSLSASVGDRVTITCRASQPIVRNLRWYQQKPGKAPKLLIYAVSYLEPGVPSRFSGSGSGTDFTLTISSLQPEDFATYHCQQGYRWPVTFGQGTKVEIKR | nM | 0.093 |
| ABT1-141-51 (other, VK dAb) VL: DIQMTQSPSSLSASVGDRVTITCRASQWIQKQLAWYQQKPGKVPKLLIYSSSYLQSGVPSRFSGSGSGTDFTLTISSLEPEDFATYYCQQHLRVPMTFGQGTKVVIKR | nM | 20 |
| ABT1-95-67 (other, VK dAb) VL: DIQMTQSPSSLSASVGDRVTITCRASQPIVRNLRWYQQKPGKAPKLLIYASSYLEPGVPSRFSGSGSGTDFTLTISSLQPEDFATYHCQQGYRWPVTFGQGTKVEIKR | nM | 0.044 |
| ABT1-95-28 (other, VK dAb) VL: DIQMTQSPSSLSASVGDRVTITCRASQPIVRNLRWYQQKPGKAPKLLIYSSSYLEPGVPSRFSGSGSGTDFTLTISSLQPEDFATYYCQQGYGWPVTFGQGTKVEIKR | nM | 2 |

Sourced from patent US20090291081A1
